- TEST METHOD NOTES: qHTS of pediatric cancer cell lines to identify multiple opportunities for drug repurposing: Primary screen for DAOY cells (AID 1347090); note: nearly all actives have a fitted effect of over 55% in size
- TEST CONTEXT: DAOY medulloblastoma viability, CellTiter-Glo luminescence, 48 h; series mostly up to 46 µM
Results filed as inconclusive are left out. The source made the active and inactive calls. Calls come from the whole dose curve; as a rule, active = well fitted cell-killing curve with a large enough effect; inconclusive = small, poorly fitted or top-dose-only effect; inactive = flat fitted curve, though single readings scatter.
Pick from y for active, n for inactive when you respond.

Cc1csc(NC(=O)c2sc3nc4c(c(C(F)(F)F)c3c2N)CCC4)n1    y
Cc1cc([C@@H](C)Nc2ccccc2C(=O)O)c2nc(N3CCOCC3)cc(=O)n2c1    y
Nc1ccc(S(=O)(=O)Nc2ccnn2-c2ccccc2)cc1    n

As a next step, examine the compound that follows.
Each compound tested received a call. Report the one for CCc1ccc(CCOc2ccc(CC3SC(=O)NC3=O)cc2)nc1 (centres undefined) .
n
